Cited source for all entries: PubChem BioAssay (NCI)

experiment: NCI Yeast Anticancer Drug Screen. Data for the mlh1 rad18 strain (AID 175)
condition_description: S. cerevisiae mlh1 rad18 strain growth inhibition; at 5.0 µM (retest, dose inferred, filed as 0.5); active compounds read high
About 79,000 compounds went through this panel and 15% of them were active in at least one assay; those are over-represented in the sample as a whole.
For each record, write down the corresponding growth inhibition.
Entry rule: numbers only, all in %.

Form field: reported growth inhibition of O=c1oc2ccccc2c(O)c1C1=N/C(=N/N=C/c2ccc(Cl)cc2)SC1
1

Suppose we examine the compound OCC(O)C(O)C(O)/C=N\Nc1ccccc1 (centres undefined) ; what growth inhibition value has been reported?
16

What value of growth inhibition has been recorded for this entry: CN(C)CC(CN1CCCC1)C(=O)c1ccccc1 (centres undefined)
15

Entry COC1/C=C/OC2(C)Oc3c(C)c(O)c4c(c3C2=O)C(=O)c2cnc(nc2C4=O)/C(C)=C\C=C\C(C)C(O)C(C)C(O)C(C)C(OC(C)=O)C1C (centres undefined) has what growth inhibition?
20

Value lookup for growth inhibition; key = ON=C(CC(O)(C(F)(F)Cl)C(F)(F)Cl)CC(O)(C(F)(F)Cl)C(F)(F)Cl
62

Name the reported growth inhibition value associated with the compound Cc1ccc(Oc2ccc(C(=O)C(CN(C)C)CN(C)C)cc2)cc1
96

Returns the measured growth inhibition for the input compound. Input: COC(=O)c1c(C)cccc1C1CN=NC12Cc1ccc(C)c(C)c1C2=O (centres undefined)
-1

Would you kindly share the measured growth inhibition for COC([C@@H](OC(=O)c1ccccc1)[C@H](OC(=O)c1ccccc1)C(O)COC(=O)c1ccccc1)n1cc(C)c(=O)[nH]c1=O (some centres undefined) ?
-3

Return reported growth inhibition; argument: [Fe+2].c1cc[cH-]c1.c1ccc(-c2ccc[cH-]2)cc1
1

----------
experiment: NCI Yeast Anticancer Drug Screen. Data for the rad50 strain (AID 155);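 also: 0% = growth of vehicle-only cultures of the same strain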
condition_description: S. cerevisiae rad50 strain growth inhibition; at 50.0 µM (retest, dose inferred, filed as 5.0); active compounds read high
This is part of a sample that, as a whole, favours compounds with a hit. Of some 79,000 tested, about 15% had one in any assay.
What growth inhibition was measured for each of the following?
Respond with the bare value in %.

// returns reported growth inhibition for input O=Cc1ccc2ccc3ccccc3c2c1
85

I am curious: what growth inhibition value has been reported for COc1c(O)cc(C=O)cc1[N+](=O)[O-] ?
14

Would you kindly share the measured growth inhibition for CS(C)=O.[Cl-].[Cl-].[NH-]CC(O)CN(Cc1ccccc1)CC(O)CN.[Pt] (stereo unspecified) ?
4

# input molecule: O=C1OC2(c3ccccc31)c1cc(I)c(O)c(I)c1Oc1c2cc(I)c(O)c1I ; wanted: its growth inhibition
99

Reported growth inhibition for CSC(=S)/C(=C/Nc1ncccn1)c1ccccc1 : what is it?
97

Need growth inhibition, item O=C1C(CN2CCCC2)C(O)=C(c2ccccc2)N1c1ccccc1 (stereo unspecified)
4

Requested field: growth inhibition. Item: Cc1ccc(C2=CC(=O)/C(=C\C(=O)c3ccc(Cl)cc3)O2)cc1
31

So what's the measured growth inhibition for this one? Nc1ncnc2nc(-c3ccc(C[P+](c4ccccc4)(c4ccccc4)c4ccccc4)cc3)[nH]c12
77

Requested field: growth inhibition. Item: CCc1cccc(C)c1NC(=O)C1=C(C)NC(C)=C(C(=O)Nc2c(C)cccc2CC)C1c1ccc2c(c1)OCO2
32

Reported growth inhibition for O=C1C=C(Br)C(=O)C12CCc1ccccc12 (stereo unspecified) : what is it?
99

// query growth inhibition value for entry O=C1OC2(CCCCC2)OC(=O)C1=Cc1ccc([N+](=O)[O-])s1
99
